# Target Of Assay: Recombinant human KIF18A (1-467 His-tagged) protein (Homo sapiens (Human), UniProt Q8NI77)
# Sequence (Q8NI77 1-467): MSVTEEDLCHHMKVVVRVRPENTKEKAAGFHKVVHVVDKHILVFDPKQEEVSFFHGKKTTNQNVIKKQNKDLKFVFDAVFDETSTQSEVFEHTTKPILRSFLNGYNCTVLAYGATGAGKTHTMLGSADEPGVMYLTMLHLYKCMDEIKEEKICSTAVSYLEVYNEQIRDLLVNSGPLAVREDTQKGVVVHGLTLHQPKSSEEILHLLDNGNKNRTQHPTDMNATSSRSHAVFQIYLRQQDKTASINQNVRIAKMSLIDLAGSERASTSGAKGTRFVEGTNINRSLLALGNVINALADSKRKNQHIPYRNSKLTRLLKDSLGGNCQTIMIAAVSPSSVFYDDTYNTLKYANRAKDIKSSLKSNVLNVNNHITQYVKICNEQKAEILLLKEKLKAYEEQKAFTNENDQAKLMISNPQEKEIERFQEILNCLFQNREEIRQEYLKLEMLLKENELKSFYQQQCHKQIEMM
# Sequence (P02550 whole entry partner): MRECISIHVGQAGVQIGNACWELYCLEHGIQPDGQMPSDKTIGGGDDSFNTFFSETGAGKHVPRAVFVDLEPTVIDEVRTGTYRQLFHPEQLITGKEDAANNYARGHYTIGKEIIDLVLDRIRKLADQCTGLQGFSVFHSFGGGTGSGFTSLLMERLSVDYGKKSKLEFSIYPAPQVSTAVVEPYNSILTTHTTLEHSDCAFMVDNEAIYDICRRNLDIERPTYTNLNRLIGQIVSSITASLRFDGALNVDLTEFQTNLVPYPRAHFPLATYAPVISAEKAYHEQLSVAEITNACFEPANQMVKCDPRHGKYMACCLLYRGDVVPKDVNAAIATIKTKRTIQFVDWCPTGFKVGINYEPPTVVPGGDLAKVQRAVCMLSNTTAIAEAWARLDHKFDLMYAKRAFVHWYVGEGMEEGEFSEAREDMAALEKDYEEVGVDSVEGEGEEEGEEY
# Sequence (P02554 whole entry partner): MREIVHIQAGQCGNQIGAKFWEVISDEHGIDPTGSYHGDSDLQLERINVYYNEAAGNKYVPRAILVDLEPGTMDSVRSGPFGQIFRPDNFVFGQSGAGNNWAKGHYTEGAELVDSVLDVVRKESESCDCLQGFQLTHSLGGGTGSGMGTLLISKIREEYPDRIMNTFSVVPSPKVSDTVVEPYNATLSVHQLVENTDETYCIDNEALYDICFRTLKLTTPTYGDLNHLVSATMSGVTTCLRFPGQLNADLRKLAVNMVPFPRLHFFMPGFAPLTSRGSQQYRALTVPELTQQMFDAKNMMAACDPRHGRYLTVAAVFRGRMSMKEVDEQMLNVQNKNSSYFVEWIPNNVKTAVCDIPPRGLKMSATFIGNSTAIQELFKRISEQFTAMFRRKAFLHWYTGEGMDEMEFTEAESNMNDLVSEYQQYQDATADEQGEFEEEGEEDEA
# Method Summary: KIF18A Enzyme Assay: microtubule-stimulated ATPase activity (ADP-Glo)
# Test Context: read-out: KIF18A ATPase IC50
pIC50: −log10 of the molar value.

{"columns": ["Smiles Entry", "Target Of Assay", "pIC50"],
 "data": [
  ["Cc1cc(NC(=O)c2ccc(NS(=O)(=O)[C@H](C)CO)cc2N2CCC3(CC2)CC3)nc(N2CCC(F)(F)CC2)n1", "Recombinant human KIF18A (1-467 His-tagged) protein (Homo sapiens (Human), UniProt Q8NI77)", 7.21],
  ["Cc1cc(NC(=O)c2ccc(NS(=O)(=O)[C@@H](C)CO)cc2N2CCC3(CC2)CC3)nc(N2CCC(F)(F)CC2)n1", "Recombinant human KIF18A (1-467 His-tagged) protein (Homo sapiens (Human), UniProt Q8NI77)", 7.15]
]}
